Tested on: Leishmania infantum
Assay: Induction of ROS production in Leishmania infantum promastigotes by DCFH-DA staining based flow cytometry analysis
Type: functional, organism-based
Calls of active or inactive are those of the source. No cut-off for these calls is given here.
result type: Activity

O=c1[nH]c(-c2ccc(Cl)cc2)nc2ccccc12 ... inactive
Fc1ccc(-c2nc3ccccc3/c(=N/N=C/c3ccco3)[nH]2)cc1 ... inactive
NNc1nc(-c2ccc(Cl)cc2)nc2ccccc12 ... inactive

* * *

Collected solubility values appear next to each entry.
Experiment: Solubility of the compound by UV-Vis spectroscopy
Format: physicochemical
Give the value in µM but do not write µM after it.

Here is how some molecules turned out for solubility.
O=[N+]([O-])c1ccc(/C=N/N=c2\[nH]c(-c3ccc(Br)cc3)nc3ccccc23)o1 ... 2.67
Fc1ccc(-c2nc3ccccc3/c(=N/N=C/c3ccco3)[nH]2)cc1 ... 7.87

Query: Determine from records and report solubility for `Cc1ccc(-c2nc3ccccc3/c(=N/N=C/c3ccc([N+](=O)[O-])o3)[nH]2)cc1`
Reply: 7.23

* * *

System: Trypanosoma cruzi
Assay: Antitrypanosomal activity against of Trypanosoma cruzi epimastigotes in presence of FA
Type: functional, organism-based
Binary label based on IC50 with cut-off 30 µM: below gives true (1), not below gives false (0).

Answered examples (4):
NNc1nc(-c2ccc(Cl)cc2)nc2ccccc12 ... true (1)
O=[N+]([O-])c1ccc(/C=N/N=c2\[nH]c(-c3ccc(F)cc3)nc3ccccc23)o1 ... true (1)
Fc1ccc(-c2nc3ccccc3/c(=N/N=C/c3ccco3)[nH]2)cc1 ... false (0)
O=c1[nH]c(-c2ccc(Cl)cc2)nc2ccccc12 ... true (1)

Query: Is the reported IC50 for `Oc1nc(-c2ccc(F)cc2)nc2ccccc12` strictly below 30 µM?
Reply: false (0)

Query: Is the reported IC50 for `NNc1nc(-c2ccc(Br)cc2)nc2ccccc12` strictly below 30 µM?
Reply: true (1)

* * *

Test: Selectivity index, ratio of CC50 for mouse J774.1 cells to IC50 for Trypanosoma cruzi epimastigotes
Type: toxicity
Conditions: read-out: Ratio CC50/IC50
result type: selectivity ratio
Enter the number alone.

Query: Determine from records and report selectivity ratio for `Fc1ccc(-c2nc3ccccc3/c(=N/N=C/c3ccco3)[nH]2)cc1`
Reply: 5.7

Query: Determine from records and report selectivity ratio for `O=[N+]([O-])c1ccc(/C=N/N=c2\[nH]c(-c3ccc(F)cc3)nc3ccccc23)o1`
Reply: 16.8

Query: Determine from records and report selectivity ratio for CC1CS(=O)(=O)CCN1/N=C/c1ccc([N+](=O)[O-])o1 (stereo not given)
Reply: 36.3

Query: Determine from records and report selectivity ratio for `O=[N+]([O-])c1ccc(/C=N/N=c2\[nH]c(-c3cccc(Cl)c3)nc3ccccc23)o1`
Reply: 60.2

Query: Determine from records and report selectivity ratio for `O=[N+]([O-])c1ccc(/C=N/N=c2\[nH]c(-c3ccccc3)nc3ccccc23)o1`
Reply: 23.9

* * *

Experiment: Solubility of the compound by UV-Vis spectroscopy
Format: physicochemical
Would you mind labelling by solubility? At or over 6 µM is condition met, under is condition not met.

Query: Please check the record `O=[N+]([O-])c1ccc(/C=N/N=c2\[nH]c(-c3ccc(F)cc3)nc3ccccc23)o1` and state if its solubility is at or above 6 µM.
Reply: condition not met

* * *

Assay: Cytotoxicity against mouse J774.1 cells
Assay type: toxicity, cell-based
Collected CC50 values appear next to each entry.
Give the value in µM but do not write µM after it.

Fc1ccc(-c2nc3ccccc3/c(=N/N=C/c3ccco3)[nH]2)cc1 ... 119
O=[N+]([O-])c1ccc(/C=N/N=c2\[nH]c(-c3ccccc3)nc3ccccc23)o1 ... 15.1
O=[N+]([O-])c1ccc(/C=N/N=c2\[nH]c(-c3cccc(Cl)c3)nc3ccccc23)o1 ... 41.6
O=[N+]([O-])c1ccc(/C=N/N=c2\[nH]c(-c3ccc(F)cc3)nc3ccccc23)o1 ... 69.1

Let us examine a further case.
Query: Determine from records and report CC50 for CCCCCCCCCCCCCCCCOP(=O)([O-])OCC[N+](C)(C)C [MILTEFOSINE]
Reply: 89.2

* * *

Test system: Trypanosoma cruzi
Test: Induction of NO production in Trypanosoma cruzi epimastigotes by Griess method
Format: functional, organism-based
Active and inactive are the calls of the source. The rule behind the calls is not given here.
Pick one: active, inactive

Answered examples (3):
O=[N+]([O-])c1ccc(/C=N/N=c2\[nH]c(-c3cccc(Cl)c3)nc3ccccc23)o1 ... active
O=c1[nH]c(-c2ccc(Cl)cc2)nc2ccccc12 ... inactive
Fc1ccc(-c2nc3ccccc3/c(=N/N=C/c3ccco3)[nH]2)cc1 ... inactive

Could you now look at the following compound, please?
Query: // param item: `NNc1nc(-c2ccc(Cl)cc2)nc2ccccc12` ; yields the recorded call
Reply: active

* * *

Tested on: Leishmania infantum
Assay: Induction of NO production in Leishmania infantum promastigotes by Griess method
Format: functional, organism-based
Activity calls are given as the source filed them. No cut-off for these calls is given here.
Pick one: active, inactive

Fc1ccc(-c2nc3ccccc3/c(=N/N=C/c3ccco3)[nH]2)cc1 ... inactive
NNc1nc(-c2ccc(Cl)cc2)nc2ccccc12 ... active
O=c1[nH]c(-c2ccc(Cl)cc2)nc2ccccc12 ... inactive

Query: // param item: `O=[N+]([O-])c1ccc(/C=N/N=c2\[nH]c(-c3cccc(Cl)c3)nc3ccccc23)o1` ; yields the recorded call
Reply: active

* * *

Collected selectivity ratio values appear next to each entry.
Test: Selectivity index, ratio of CC50 for mouse J774.1 cells to IC50 for Leishmania infantum promastigotes
Assay type: toxicity
Conditions: read-out: Ratio CC50/IC50
Enter the number alone.

Here is how some compounds turned out for selectivity ratio.
O=[N+]([O-])c1ccc(/C=N/N=c2\[nH]c(-c3ccccc3)nc3ccccc23)o1 ... 17.1
Fc1ccc(-c2nc3ccccc3/c(=N/N=C/c3ccco3)[nH]2)cc1 ... 13.1
CCCCCCCCCCCCCCCCOP(=O)([O-])OCC[N+](C)(C)C ... 8.9
O=[N+]([O-])c1ccc(/C=N/N=c2\[nH]c(-c3ccc(F)cc3)nc3ccccc23)o1 ... 15.1

Let us examine a further case.
Query: Determine from records and report selectivity ratio for `O=[N+]([O-])c1ccc(/C=N/N=c2\[nH]c(-c3cccc(Cl)c3)nc3ccccc23)o1`
Reply: 54

* * *

Assay: Selectivity index, ratio of CC50 for mouse J774.1 cells to IC50 for Leishmania infantum amastigotes
Type: toxicity
Settings: read-out: Ratio CC50/IC50
result type: selectivity ratio
Enter the number alone.

Here is how some compounds turned out for selectivity ratio.
O=[N+]([O-])c1ccc(/C=N/N=c2\[nH]c(-c3cccc(Cl)c3)nc3ccccc23)o1 ... 46.7
O=[N+]([O-])c1ccc(/C=N/N=c2\[nH]c(-c3ccc(F)cc3)nc3ccccc23)o1 ... 19.6
O=[N+]([O-])c1ccc(/C=N/N=c2\[nH]c(-c3ccccc3)nc3ccccc23)o1 ... 16.2
CCCCCCCCCCCCCCCCOP(=O)([O-])OCC[N+](C)(C)C [MILTEFOSINE] ... 10.1

Let us examine a further case.
Query: Determine from records and report selectivity ratio for `Fc1ccc(-c2nc3ccccc3/c(=N/N=C/c3ccco3)[nH]2)cc1`
Reply: 10.7

* * *

Experiment: Solubility of the compound by UV-Vis spectroscopy
Assay type: physicochemical
result type: solubility
In your response, the unit should come after the numeric value.

Here is how some molecules turned out for solubility.
O=[N+]([O-])c1ccc(/C=N/N=c2\[nH]c(-c3cccc(Br)c3)nc3ccccc23)o1 ... 5.67 µM
O=[N+]([O-])c1ccc(/C=N/N=c2\[nH]c(-c3ccc(Cl)cc3)nc3ccccc23)o1 ... 3.21 µM
O=[N+]([O-])c1ccc(/C=N/N=c2\[nH]c(-c3ccccc3)nc3ccccc23)o1 ... 7.99 µM

Query: Determine from records and report solubility for `O=[N+]([O-])c1ccc(/C=N/N=c2\[nH]c(-c3cccc(Cl)c3)nc3ccccc23)o1`
Reply: 7.11 µM

From: ChEMBL document CHEMBL5329191
